Data origin, for the record: patent US11098040B2

Reported concentration at 0.5 h values for a set of compounds
assay: Pharmacokinetic (PK) studies in Balb/C nude mice via intraperitoneal injection; settings: male, Balb/c nude, mouse, plasma, ip, 15 mg/kg, Calculated Concentration, Mean, IP 15 mg/kg, Balb/C nude mice, 0.5 h, mean of 3 mice
Write the answer as a number in ng/mL, unit excluded.

compound	concentration at 0.5 h / ng/mL
CN(C)C(=O)[C@H]1Cc2c([nH]c3ccccc23)[C@H](c2ccc([Si](C)(C)C)cc2)N1C(=O)CCl [Example 67]	112

Continue with the next compound.
Input line: What value of measured concentration at 0.5 h is listed for COC(=O)c1ccc([C@H]2c3[nH]c4ccccc4c3C[C@H](C(=O)OC)N2C(=O)CCl)cc1 [Example K601, RSL3, reference compound] ?
Output line: 0.783

* * *

system: SJSA-1; assay: Cell viability assay (CellTiter Glo), osteosarcoma SJSA-1; assay type: cell-based; conditions: Homo sapiens, 96 hours
Below, each entry is listed with its recorded IC50.
Give just the number in nM; leave the unit off.

Worked cases, IC50 given:
molecule	result value
COC(=O)[C@H]1Cc2c([nH]c3ccccc23)[C@H](c2ccc(OC(C)=O)cc2)N1C(=O)CCl [Example 12]	149
CNC(=O)c1ccc([C@H]2c3[nH]c4ccccc4c3C[C@H](C(=O)OC)N2C(=O)CCl)cc1 [Example 7]	687
CCC[C@H]1Cc2c([nH]c3ccccc23)[C@H](c2ccc(N3CCOCC3)cc2)N1C(=O)CCl [Example 118]	28

Input line: # lookup: IC50 of COC(=O)c1ccc([C@H]2c3[nH]c4ccccc4c3C[C@H](C(=O)OC(C)(C)C)N2C(=O)CCl)cc1 [Example 2]
Output line: 236

* * *

concentration at 2 h values, listed per item
experiment: in vivo; details: male, Balb/c nude, mouse, ip, 15 mg/kg, Calculated Concentration, Mean
Write the value in ng/mL as a bare number.

compound	concentration at 2 h, ng/mL
COC(=O)[C@H]1Cc2c([nH]c3ccccc23)[C@H](c2ccc(C(=O)OC(C)(C)C)cc2)N1C(=O)CCl [Example 1]	14.9

Could you now consider this next compound?
Input line: What value of measured concentration at 2 h is listed for COC(=O)[C@H]1Cc2c([nH]c3ccccc23)[C@H](c2ccc(S(=O)(=O)N[C@]34C[C@H]5C[C@H](C[C@H](C5)C3)C4)cc2)N1C(=O)CCl [Example 24] ?
Output line: 44.5

* * *

assay: in vivo; settings: male, Balb/c nude, mouse, ip, 15 mg/kg
measurement kind: MRT inf
Express your answer as a number followed by its unit.

Input line: Item COC(=O)[C@H]1Cc2c([nH]c3ccccc23)[C@H](c2ccc(C(=O)OC(C)(C)C)cc2)N1C(=O)CCl has what recorded MRT inf?
Output line: 1.4 h

* * *

assay: PK profile, IV plasma concentration and PK parameters; assay type: in vivo; conditions: Balb/C nude, mouse, iv, 5 mg/kg, 30% Kolliphore EL with 1% poloxamar 407 in water
measurement kind: clearance (mL/min/kg)
Note: unit mL/min/kg is implicit; provide only the numeric part.

smiles notation	value unit	result value
C[C@H]1Cc2c([nH]c3ccccc23)[C@H](c2ccc(NC34CC5CC(CC(C5)C3)C4)cc2)N1C(=O)CCl	mL/min/kg	113
CCCC[C@H]1Cc2c([nH]c3ccccc23)[C@H](c2ccc(NC34CC5CC(CC(C5)C3)C4)cc2)N1C(=O)CCl	mL/min/kg	13
CCCC[C@H]1Cc2c([nH]c3ccccc23)[C@H](c2ccc(S(=O)(=O)NC3CC3)cc2F)N1C(=O)CCl	mL/min/kg	109

Input line: What clearance value was documented for this compound, C#CC(=O)N1[C@@H](CCCC)Cc2c([nH]c3ccccc23)[C@@H]1c1ccc(NC23CC4CC(CC(C4)C2)C3)cc1 ?
Output line: 4.79

* * *

assay: Whole blood stability, mouse; type: in vitro ADME; conditions: 30 min
Param threshold (0.2%) applies to Whole Blood Stability % Remaining at 37° C. Mouse; output true when value >= threshold, false when value < threshold.

Example results:
compound	discrete label
COC(=O)c1ccc([C@@H]2c3sc4ccccc4c3C[C@H](C(=O)OC)N2C(=O)CCl)cc1 [Example 55d]	false
COC[C@H]1Cc2c([nH]c3ccccc23)[C@H](c2ccc(C(=O)OC(C)(C)C)cc2)N1C(=O)CCl	true
CC(=O)Nc1ccc([C@H]2c3[nH]c4ccccc4c3C[C@H](C(=O)N(C)C)N2C(=O)CCl)cc1	true
COC(=O)c1ccc([C@H]2c3[nH]c4ccc(Cl)cc4c3C[C@H](C(=O)OC)N2C(=O)CCl)cc1	false
CC[C@H]1Cc2c([nH]c3ccccc23)[C@@H](c2ccc(C(=O)OC)cc2)N1C(=O)CCl	true

Now consider a different compound.
Input line: Hi team, for CN(C)C(=O)[C@H]1Cc2c([nH]c3ccccc23)[C@H](c2ccc(S(=O)(=O)C(C)(C)C)cc2)N1C(=O)CCl , is the recorded Whole Blood Stability % Remaining at 37° C. Mouse at or above 0.2%?
Output line: true

* * *

Test system: SJSA-1
Assay: Cell viability assay (CellTiter Glo), osteosarcoma SJSA-1
Assay type: cell-based
Settings: Homo sapiens, 96 hours
Description: Cell viability assay was performed to assess the potency of the compounds in human cancer cell lines KP4 (pancreatic ductal adenocarcinoma), MiaPaCa-2 (pancreatic carcinoma), AsPC-1 (pancreatic adenocarcinoma, ascites), 143B (osteosarcoma), and SJSA-1 (osteosarcoma). […] After 96 hours of incubation, 50 μL of CellTiter Glo reagent (Promega) was added to each well and luminescence was measured after 10 minutes using EnVision (PerkinElmer). […] IC50, relative IC50, or % of top inhibition was calculated. […]
measurement kind: pIC50
Remember the convention: pIC50 equals -log10 of concentration in molar.

// known answers, use as guide
compound	tested on	pIC50
CC(C)(C)OC(=O)c1ccc([C@H]2c3[nH]c4ccccc4c3C[C@H](C(=O)OC(C)(C)C)N2C(=O)CCl)cc1	SJSA-1	6.67
COC(=O)[C@H]1Cc2c([nH]c3ccccc23)[C@H](c2ccc(S(=O)(=O)N3CC(O)C3)cc2)N1C(=O)CCl	SJSA-1	6.20
COC(=O)[C@H]1Cc2c([nH]c3ccccc23)[C@H](c2ccc(S(=O)(=O)N3CCC(O)CC3)cc2)N1C(=O)CCl	SJSA-1	6.50
COC(=O)c1ccc([C@H]2c3[nH]c4ccccc4c3C[C@H](C(=O)OC)N2C(=O)CCl)cc1 [Example K601, RSL3, reference compound]	SJSA-1	7.17
COC(=O)[C@H]1Cc2c([nH]c3ccccc23)[C@H](c2ccc(N[C@]34CC5C[C@H](C[C@H](C5)C3)C4)cc2)N1C(=O)CCl	SJSA-1	7.85

Please examine the following record next.
Input line: // lookup pIC50 | system=SJSA-1 | key= C[C@H]1Cc2c([nH]c3ccc(F)cc23)[C@H](c2ccc(N3CCOCC3)cc2)N1C(=O)CCl
Output line: 6.94

* * *

assay: Whole blood stability, human; assay type: in vitro ADME; conditions: 60 min
measurement kind: Whole Blood Stability % Remaining at 37° C. Human
The number alone won't do; follow it with the unit.

compound	result value
COC(=O)[C@H]1Cc2c([nH]c3ccccc23)[C@@H](c2ccc(OC(=O)C(C)(C)C)cc2)N1C(=O)CCl [Compound 13a]	59.9%

Input line: Reported Whole Blood Stability % Remaining at 37° C. Human for CN(C)C(=O)[C@H]1Cc2c([nH]c3ccccc23)[C@@H](c2ccc([Si](C)(C)C)cc2)N1C(=O)CCl [Compound 67a] : what is it?
Output line: 15.5%

Input line: May I ask what Whole Blood Stability % Remaining at 37° C. Human has been recorded for COC(=O)c1ccc([C@H]2c3[nH]c4ccccc4c3C[C@H](C(=O)OC(C)(C)C)N2C(=O)CCl)cc1 [Compound 2] ?
Output line: 39.4%

* * *

experiment: Whole blood stability, human; assay type: in vitro ADME; settings: 60 min
Definition: the class of an entry is the range in bucket 1 (below 50%), bucket 2 (50% to below 60%), bucket 3 (60% or more) that contains its Whole Blood Stability % Remaining at 37° C. Human.

compound	discrete label
CC(C)(C)OC(=O)c1ccc([C@H]2c3[nH]c4ccccc4c3C[C@H](CO)N2C(=O)CCl)cc1 [Example 63a]	bucket 1
COC(=O)c1ccc([C@H]2c3[nH]c4cccc(Br)c4c3C[C@H](C(=O)OC)N2C(=O)CCl)cc1 [Compound 95]	bucket 3
COC(=O)[C@H]1Cc2c([nH]c3ccccc23)[C@H](c2ccc(C(=O)OC[C@]34C[C@H]5C[C@H](C[C@H](C5)C3)C4)cc2)N1C(=O)CCl [Compound 6]	bucket 1
COC(=O)[C@H]1Cc2c([nH]c3ccccc23)[C@H](c2ccc(C(=O)N[C@]34CC5C[C@H](C[C@H](C5)C3)C4)cc2)N1C(=O)CCl [Compound 28]	bucket 2
COC(=O)[C@H]1Cc2c([nH]c3ccccc23)[C@H](c2ccc(O)cc2)N1C(=O)CCl [Compound 265]	bucket 1

Input line: Which bin, given its Whole Blood Stability % Remaining at 37° C. Human, does COC(=O)c1ccc([C@H]2c3[nH]c4ccc(F)cc4c3C[C@H](C(=O)OC)N2C(=O)CCl)cc1 [Compound 91] occupy?
Output line: bucket 1

Input line: Assign a bin to COC(=O)[C@H]1Cc2c([nH]c3ccccc23)[C@H](c2ccc(C(=O)NCCN)cc2)N1C(=O)CCl [Compound 15]
Output line: bucket 3

Input line: Where would C[C@H]1Cc2c([nH]c3ccccc23)[C@H](c2ccc(C3CCCCC3)cc2)N1C(=O)CCl [Compound 110] land among the classes by reported Whole Blood Stability % Remaining at 37° C. Human?
Output line: bucket 2

Input line: State the band of CCC[C@H]1Cc2c([nH]c3ccccc23)[C@H](c2ccc(N3CCOCC3)cc2)N1C(=O)CCl [Compound 118]
Output line: bucket 3

Input line: Given COC(=O)c1ccc([C@H]2c3[nH]c4ccccc4c3C[C@H](C(=O)OC)N2C(=O)CCl)cc1 [K601 (RSL3), reference compound] , name the class its Whole Blood Stability % Remaining at 37° C. Human places it in.
Output line: bucket 1

Input line: Using the reported Whole Blood Stability % Remaining at 37° C. Human, which band applies to COC(=O)[C@H]1Cc2c([nH]c3ccccc23)[C@@H](c2ccc(S(=O)(=O)N(C)C)cc2)N1C(=O)CCl [Compound 23a] ?
Output line: bucket 3
